Tested on: NL-RLuc virus
Experiment: Inhibition of HIV Replication (NL-RLuc luciferase reporter virus in MT-2 cells)
Format: cell-based
Conditions: Human immunodeficiency virus 1, MT2, 120 h
pEC50: −log10 of the molar value.
Record Y whenever pEC50 is at 8 or higher; record N when lower.

Sample answers from the record:
structure_as_smiles=Cc1nc(C)c([C@H](OC(C)(C)C)C(=O)O)c(N2CCC(C)(C)CC2)c1-c1ccc(OCc2ccccc2)nc1 answer_label=N
structure_as_smiles=Cc1nc(C)c([C@H](OC(C)(C)C)C(=O)O)c(N2CCC(C)(C#N)CC2)c1-c1ccc(OCCc2ccc(F)cc2)cc1 answer_label=Y

Below: the item to evaluate.
Request: # check: pEC50 of "Cc1noc(C)c1CCOc1ccc(-c2c(C)nc(C)c([C@H](OC(C)(C)C)C(=O)O)c2N2CCC(C)(C)CC2)cc1" is greater than or equal to 8
Response: Y

====

Test system: NL-RLuc virus
Experiment: Inhibition of HIV Replication (NL-RLuc luciferase reporter virus in MT-2 cells)
Type: cell-based
Settings: Human immunodeficiency virus 1, MT2, 120 h
From the text: Inhibition of HIV Replication: A recombinant NL-RLuc proviral clone was constructed in which a section of the nef gene from NL4-3 was replaced with the Renilla Luciferase gene. […] In addition, the luciferous reporter provides a simple and easy method for quantitating the extent of virus growth and consequently, the antiviral activity of test compounds. […] Luciferase was quantitated using the Dual Luciferase kit from Promega (Madison, Wis.). […]
// returns Not satisfied unless EC50 is strictly below 100 nM, in which case Satisfied

Sample answers from the record:
compound=CO[C@H](COc1ccc(-c2c(C)nc(C)c([C@H](OC(C)(C)C)C(=O)O)c2N2CCC(C)(C)CC2)cc1)c1ccccc1 answer_label=Satisfied
compound=CO[C@@H](COc1ccc(-c2c(C)nc(C)c([C@H](OC(C)(C)C)C(=O)O)c2N2CCC(C)(C)CC2)cc1)c1ccccc1 answer_label=Satisfied
compound="Cc1nc(C)c([C@H](OC(C)(C)C)C(=O)O)c(N2CCC(C)(C)CC2)c1-c1ccc(OC(C)Cc2ccc(F)cc2)cc1 (some centres unmarked) [Example 22]" answer_label=Satisfied

Request: Record "Cc1nc(C)c([C@H](OC(C)(C)C)C(=O)O)c(N2CC(C(C)C)C2)c1-c1ccc(OCCc2ccc(F)cc2)cc1" : is its EC50 strictly below 100 nM?
Response: Not satisfied

Request: Record "Cc1nc(C)c([C@H](OC(C)(C)C)C(=O)O)c(N2CCC(C)(C)CC2)c1-c1ccc(OCCC(C)(C)C)cc1" : is its EC50 strictly below 100 nM?
Response: Satisfied

====

System: NL-RLuc virus
Assay: Inhibition of HIV Replication (NL-RLuc luciferase reporter virus in MT-2 cells)
Format: cell-based
Details: Human immunodeficiency virus 1, MT2, 120 h
Here, each record is paired with measured EC50 data.
Numbers only here, please. The scale is nM.

Example results:
structure_as_smiles=Cc1nc(C)c([C@H](OC(C)(C)C)C(=O)O)c(N2CCC(C)(C)CC2)c1-c1ccc(OCCc2ccc(Cl)c(F)c2)cc1 value_kind=EC50 reading=12
structure_as_smiles=Cc1nc(C)c([C@H](OC(C)(C)C)C(=O)O)c(N2CC(F)(F)C2)c1-c1ccc(OCCc2ccc(F)cc2)cc1 value_kind=EC50 reading=1990
structure_as_smiles=COc1cccc(-c2c(C)nc(C)c([C@H](OC(C)(C)C)C(=O)O)c2N2CCC(C)(C)CC2)c1 value_kind=EC50 reading=166
structure_as_smiles=Cc1ccc(CCOc2ccc(-c3c(C)nc(C)c([C@H](OC(C)(C)C)C(=O)O)c3N3CCC(C)(C)CC3)cc2)cc1 value_kind=EC50 reading=19
structure_as_smiles=COc1cc(-c2c(C)nc(C)c([C@H](OC(C)(C)C)C(=O)O)c2N2CCC(C)(C)CC2)ccc1C value_kind=EC50 reading=44

From here, focus on the item given below.
Item: "COc1cc(-c2c(C)nc(C)c([C@H](OC(C)(C)C)C(=O)O)c2N2CCC(C)(C)CC2)ccc1F" | EC50: 141
